# Tested on: Smartweed
# assayNotes: post-emergent herbicidal activity, greenhouse
# Format: in vivo
# appliedConditions: Table I, 4 WAT, 56.0 kg/h
For each entry below, report its post-emergent herbicidal activity index value.

Ask | post-emergent herbicidal activity index of CCOC(=O)CNCP(=O)(OCC1COC(C)(C)O1)OCC1COC(C)(C)O1 (centres unmarked) on Smartweed?
Reply | 3 (75-99% control)

Ask | post-emergent herbicidal activity index of CCOC(=O)CNCP(=O)(OC(CC(=O)OCC)C(=O)OCC)OC(CC(=O)OCC)C(=O)OCC (centres unmarked) on Smartweed?
Reply | 3 (75-99% control)

Ask | post-emergent herbicidal activity index of CCOC(=O)CNCP(=O)(OC(C)(C)C#N)OC(C)(C)C#N on Smartweed?
Reply | 1 (25-49% control)

Ask | post-emergent herbicidal activity index of CCOC(=O)CNCP(=O)(OCc1ccco1)OCc1ccco1 on Smartweed?
Reply | 1 (25-49% control)

Ask | post-emergent herbicidal activity index of CCOC(=O)CNCP(=O)(O)OCC(Cl)(Cl)Cl on Smartweed?
Reply | 1 (25-49% control)

====

# Tested on: Panicum Spp
# assayNotes: post-emergent herbicidal activity, greenhouse
# Assay type: in vivo
# appliedConditions: Table II, 4 WAT, 1.12 kg/h
For each entry below, report its post-emergent herbicidal activity index value.

Ask | Item CCOC(=O)CNCP(=O)(OCCN1CCCC1)OCCN1CCCC1 [Example 24] has what recorded post-emergent herbicidal activity index?
Reply | 1 (25-49% control)

Ask | Item CCOC(=O)CNCP(=O)(O)OC(C)C#N (centres unmarked) [Example 5] has what recorded post-emergent herbicidal activity index?
Reply | 4 (100% control)

Ask | Item CCCCCOC(=O)CNCP(=O)(O)OC(C)C#N (centres unmarked) [Example 6, hemihydrate] has what recorded post-emergent herbicidal activity index?
Reply | 4 (100% control)

Ask | Item CC(C#N)OP(=O)(CNCC#N)OC(C)C#N (centres unmarked) [Example 12] has what recorded post-emergent herbicidal activity index?
Reply | 0 (0-24% control)

Ask | Item CC(C#N)OP(=O)(O)CNCC(=O)OCc1ccccc1 (centres unmarked) [Example 10] has what recorded post-emergent herbicidal activity index?
Reply | 4 (100% control)

====

For each entry below, report its post-emergent herbicidal activity index value.
# Test system: Rice
# assayNotes: post-emergent herbicidal activity, greenhouse
# Assay type: in vivo
# appliedConditions: Table II, 4 WAT, 5.6 kg/h

Ask | Item CCOC(=O)CNCP(=O)(OC(C)C#N)OC(C)C#N (stereo not shown) has what recorded post-emergent herbicidal activity index?
Reply | 4 (100% control)

Ask | Item CCOC(=O)CNCP(=O)(O)OCC(Cl)(Cl)Cl has what recorded post-emergent herbicidal activity index?
Reply | 3 (75-99% control)

Ask | Item CCOC(=O)CNCP(=O)(OC(C)CC(=O)OCC)OC(C)CC(=O)OCC (stereo not shown) has what recorded post-emergent herbicidal activity index?
Reply | 0 (0-24% control)

Ask | Item CCOC(=O)CNCP(=O)(OCCN1CCCC1)OCCN1CCCC1 has what recorded post-emergent herbicidal activity index?
Reply | 2 (50-74% control)

Ask | Item CC(C#N)OP(=O)(O)CNCC(=O)OCCCl (stereo not shown) has what recorded post-emergent herbicidal activity index?
Reply | 3 (75-99% control)

Ask | Item CCOC(=O)CNCP(=O)(O)OC(C)C#N (stereo not shown) has what recorded post-emergent herbicidal activity index?
Reply | 4 (100% control)

Ask | Item CC(C#N)OP(=O)(CNCC#N)OC(C)C#N (stereo not shown) has what recorded post-emergent herbicidal activity index?
Reply | 2 (50-74% control)

Ask | Item CCOC(=O)CNCP(=O)(O)OC(C)C(=O)OC (stereo not shown) has what recorded post-emergent herbicidal activity index?
Reply | 2 (50-74% control)

Ask | Item CC(C#N)OP(=O)(O)CNCC(=O)OCc1ccccc1 (stereo not shown) has what recorded post-emergent herbicidal activity index?
Reply | 2 (50-74% control)

Ask | Item CCOC(=O)CNCP(=O)(OCC1COC(C)(C)O1)OCC1COC(C)(C)O1 (stereo not shown) has what recorded post-emergent herbicidal activity index?
Reply | 0 (0-24% control)

====

# Test system: Velvetleaf
# assayNotes: post-emergent herbicidal activity, greenhouse
# Assay type: in vivo
# appliedConditions: Table I, 4 WAT, 56.0 kg/h
readoutType: post-emergent herbicidal activity index

Ask | Item CCOC(=O)CNCP(=O)(OCC1COC(C)(C)O1)OCC1COC(C)(C)O1 (centres unmarked) has what recorded post-emergent herbicidal activity index?
Reply | 2 (50-74% control)

Ask | Item CCOC(=O)CNCP(=O)(O)OCC(Cl)(Cl)Cl has what recorded post-emergent herbicidal activity index?
Reply | 0 (0-24% control)

Ask | Item CCOC(=O)CNCP(=O)(OC(CC(=O)OCC)C(=O)OCC)OC(CC(=O)OCC)C(=O)OCC (centres unmarked) has what recorded post-emergent herbicidal activity index?
Reply | 3 (75-99% control)

Ask | Item CCOC(=O)CNCP(=O)(OCc1ccco1)OCc1ccco1 has what recorded post-emergent herbicidal activity index?
Reply | 1 (25-49% control)

Ask | Item CCOC(=O)CNCP(=O)(OC(C)(C)C#N)OC(C)(C)C#N has what recorded post-emergent herbicidal activity index?
Reply | 0 (0-24% control)

====

For each entry below, report its post-emergent herbicidal activity index value.
# Tested on: Morningglory
# assayNotes: post-emergent herbicidal activity, greenhouse
# Format: in vivo
# appliedConditions: Table I, 4 WAT, 5.6 kg/h

Ask | Item CCCCCOC(=O)CNCP(=O)(O)OC(C)C#N (stereo not drawn) [Example 6, hemihydrate] has what recorded post-emergent herbicidal activity index?
Reply | 3 (75-99% control)

Ask | Item CCOCCOC(=O)CNCP(=O)(O)OC(C)C#N (stereo not drawn) [Example 9] has what recorded post-emergent herbicidal activity index?
Reply | 2 (50-74% control)

Ask | Item CCOC(=O)CNCP(=O)(OCCSC(=O)OCC)OCCSC(=O)OCC [Example 19] has what recorded post-emergent herbicidal activity index?
Reply | 2 (50-74% control)

Ask | Item CCOC(=O)CNCP(=O)(O)OCC(Cl)(Cl)Cl [Example 27] has what recorded post-emergent herbicidal activity index?
Reply | 2 (50-74% control)

Ask | Item CC(C#N)OP(=O)(O)CNCC(=O)OCc1ccccc1 (stereo not drawn) [Example 10] has what recorded post-emergent herbicidal activity index?
Reply | 2 (50-74% control)

Ask | Item CCOC(=O)CNCP(=O)(OC(C)C(=O)OCC)OC(C)C(=O)OCC (stereo not drawn) [Example 16] has what recorded post-emergent herbicidal activity index?
Reply | 1 (25-49% control)

Ask | Item CC(C#N)OP(=O)(CNCC#N)OC(C)C#N (stereo not drawn) [Example 12] has what recorded post-emergent herbicidal activity index?
Reply | 2 (50-74% control)

Ask | Item CCOC(=O)CNCP(=O)(OCCN1CCCC1)OCCN1CCCC1 [Example 24] has what recorded post-emergent herbicidal activity index?
Reply | 1 (25-49% control)

Ask | Item CCOC(=O)CNCP(=O)(O)OC(C)C#N (stereo not drawn) [Example 5] has what recorded post-emergent herbicidal activity index?
Reply | 3 (75-99% control)

====

# System: Crabgrass
# assayNotes: post-emergent herbicidal activity, greenhouse
# Format: in vivo
# appliedConditions: Table II, 4 WAT, 5.6 kg/h
readoutType: post-emergent herbicidal activity index

Ask | post-emergent herbicidal activity index of CCOC(=O)CNCP(=O)(OCC1COC(C)(C)O1)OCC1COC(C)(C)O1 (centres unmarked) on Crabgrass?
Reply | 2 (50-74% control)

Ask | post-emergent herbicidal activity index of CCOC(=O)CNCP(=O)(OC(C)C#N)OC(C)C#N (centres unmarked) on Crabgrass?
Reply | 4 (100% control)

Ask | post-emergent herbicidal activity index of CCOC(=O)CNCP(=O)(O)OC(C)C(=O)OC (centres unmarked) on Crabgrass?
Reply | 3 (75-99% control)

Ask | post-emergent herbicidal activity index of CCOC(=O)CNCP(=O)(O)OCC(Cl)(Cl)Cl on Crabgrass?
Reply | 4 (100% control)

Ask | post-emergent herbicidal activity index of CCOC(=O)CNCP(=O)(OCCN1CCCC1)OCCN1CCCC1 on Crabgrass?
Reply | 4 (100% control)

====

For each entry below, report its post-emergent herbicidal activity index value.
# Test system: Hemp Sesbania
# assayNotes: post-emergent herbicidal activity, greenhouse
# Type: in vivo
# appliedConditions: Table II, 2 WAT, 1.12 kg/h

Ask | Item CCOC(=O)CNCP(=O)(OCC1COC(C)(C)O1)OCC1COC(C)(C)O1 (stereo not shown) has what recorded post-emergent herbicidal activity index?
Reply | 2 (50-74% control)

Ask | Item CCOC(=O)CNCP(=O)(OCC(=O)OCC)OCC(=O)OCC has what recorded post-emergent herbicidal activity index?
Reply | 1 (25-49% control)

Ask | Item CCOC(=O)CNCP(=O)(O)OC(C)C(=O)OC (stereo not shown) has what recorded post-emergent herbicidal activity index?
Reply | 0 (0-24% control)

Ask | Item CCOC(=O)CNCP(=O)(OC(C)CC(=O)OCC)OC(C)CC(=O)OCC (stereo not shown) has what recorded post-emergent herbicidal activity index?
Reply | 0 (0-24% control)
